From: ChEMBL document CHEMBL1145076

# target desc: TGF-beta receptor type-1 (Homo sapiens, UniProt P36897)
# Sequence (P36897 whole entry): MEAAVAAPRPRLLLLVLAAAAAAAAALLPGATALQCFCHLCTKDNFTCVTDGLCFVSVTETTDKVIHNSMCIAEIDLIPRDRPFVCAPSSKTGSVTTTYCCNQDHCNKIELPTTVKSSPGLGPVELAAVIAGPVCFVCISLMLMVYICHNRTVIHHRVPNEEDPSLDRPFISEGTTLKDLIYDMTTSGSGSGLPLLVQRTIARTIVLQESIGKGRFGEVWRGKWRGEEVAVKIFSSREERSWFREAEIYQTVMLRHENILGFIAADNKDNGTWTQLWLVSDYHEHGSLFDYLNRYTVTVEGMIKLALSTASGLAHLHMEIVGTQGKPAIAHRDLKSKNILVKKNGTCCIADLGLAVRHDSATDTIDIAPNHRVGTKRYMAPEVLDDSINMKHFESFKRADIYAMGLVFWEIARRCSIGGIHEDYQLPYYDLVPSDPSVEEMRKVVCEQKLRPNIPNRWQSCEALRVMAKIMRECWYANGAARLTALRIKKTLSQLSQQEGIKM
# procedure details: In vitro inhibition of transforming growth factor- beta dependent luciferase production in mink lung cells (p3TP Lux)
# Type: functional, cell-based
pIC50: −log10 of the molar value.
Everything with pIC50 lower than 6 is n; everything else, including exactly 6, is y.

>  <smiles code>
COc1ccc(-c2cn(C)nc2-c2cccc(C)n2)cc1

>  <target desc>
TGF-beta receptor type-1 (Homo sapiens, UniProt P36897)

>  <group>
y

$$$$
>  <smiles code>
Fc1ccc(-c2c[nH]nc2-c2ccccn2)cc1

>  <target desc>
TGF-beta receptor type-1 (Homo sapiens, UniProt P36897)

>  <group>
n

$$$$
>  <smiles code>
c1csc(-c2n[nH]cc2-c2ccnc3ccccc23)c1

>  <target desc>
TGF-beta receptor type-1 (Homo sapiens, UniProt P36897)

>  <group>
n

$$$$
>  <smiles code>
Fc1ccc(-c2n[nH]cc2-c2ccnc3ccccc23)nc1

>  <target desc>
TGF-beta receptor type-1 (Homo sapiens, UniProt P36897)

>  <group>
y

$$$$
>  <smiles code>
Clc1ccc(-c2n[nH]cc2-c2ccnc3ccccc23)nc1

>  <target desc>
TGF-beta receptor type-1 (Homo sapiens, UniProt P36897)

>  <group>
n

$$$$
>  <smiles code>
Cc1cccc(-c2[nH]ncc2-c2ccc(Cl)cc2)n1

>  <target desc>
TGF-beta receptor type-1 (Homo sapiens, UniProt P36897)

>  <group>
y

$$$$
>  <smiles code>
Cc1cccc(-c2n[nH]cc2-c2ccnc3ccccc23)n1

>  <target desc>
TGF-beta receptor type-1 (Homo sapiens, UniProt P36897)

>  <group>
y

$$$$
>  <smiles code>
Cc1cccc(-c2n[nH]cc2-c2ccc(O)cc2)n1

>  <target desc>
TGF-beta receptor type-1 (Homo sapiens, UniProt P36897)

>  <group>
y

$$$$
>  <smiles code>
c1ccc(-c2n[nH]c(C3CC3)c2-c2ccnc3ccccc23)nc1

>  <target desc>
TGF-beta receptor type-1 (Homo sapiens, UniProt P36897)

>  <group>
y

$$$$
>  <smiles code>
FC(F)(F)c1cccc(-c2n[nH]cc2-c2ccnc3ccccc23)c1

>  <target desc>
TGF-beta receptor type-1 (Homo sapiens, UniProt P36897)

>  <group>
y

$$$$
